Below, each entry is listed with its recorded OD.
- Tested on: P388
- Protocol Text: Compound administered intraperitoneally was evaluated for optimal dose (OD) given per day after inoculation of 10e 6 P388 leukemia cells for highest nontoxic dose
- Format: functional, Mus musculus

# Smiles Structure, OD, mg/kg
measured = [
    ("CN(C)CCNS(=O)(=O)c1cccc2c(N)c3ccccc3nc12", 65),
    ("CN(C)CCNC(=O)c1ccc2nc3ccccc3c(N)c2c1", 12.5),
    ("CN(C)CCN(C)C(=O)c1cccc2c(N)c3ccccc3nc12", 30),
    ("CN(C)CCNC(=O)c1ccc2c(N)c3ccccc3nc2c1", 250),
    ("Nc1c2ccccc2nc2c(C(=O)NCCN3CCOCC3)cccc12", 30),
    ("Nc1c2ccccc2nc2c(C(=O)NCCNCCO)cccc12", 20),
    ("Nc1c2ccccc2nc2ccccc12", 20),
    ("CCN(CC)CCNC(=O)c1cccc2c(N)c3ccccc3nc12", 5.9),
    ("CN(C)CCCNC(=O)c1cccc2c(N)c3ccccc3nc12", 50),
]

###

- Test system: Nucleic Acid
- Protocol Text: Difference between log K of (AT) and log K of (GC) DNA binding
- Assay type: nucleic-acid assay
Reported Log K delta values follow for various compounds
Observable: Log K delta

# Compound, Target System, Reported Result
data = [
    ("COc1ccc(C(=O)NCCN(C)C)c2nc3ccccc3c(N)c12", "Nucleic Acid", 0.21),
    ("COc1ccc2nc3c(C(=O)NCCN(C)C)cccc3c(N)c2c1", "Nucleic Acid", 0.02),
    ("COc1ccc2c(N)c3cccc(C(=O)NCCN(C)C)c3nc2c1", "Nucleic Acid", 0.38),
    ("Nc1c2ccccc2nc2ccccc12 [AMINACRINE]", "Nucleic Acid", 0.07),
    ("Nc1c2ccccc2nc2c(C(=O)NCCNCCO)cccc12", "Nucleic Acid", 0.39),
    ("Nc1c2ccccc2nc2c(C(=O)NCCN3CCOCC3)cccc12", "Nucleic Acid", 0.29),
    ("CN(C)CCNC(=O)c1ccc2nc3ccccc3c(N)c2c1", "Nucleic Acid", 0.47),
    ("COc1cccc2nc3c(C(=O)NCCN(C)C)cccc3c(N)c12", "Nucleic Acid", -0.18),
    ("COc1cc(C(=O)NCCN(C)C)c2nc3ccccc3c(N)c2c1", "Nucleic Acid", 0.76),
    ("CN(C)CCCCCCNC(=O)c1cccc2c(N)c3ccccc3nc12", "Nucleic Acid", -0.01),
    ("COc1ccc2c(N)c3ccccc3nc2c1C(=O)NCCN(C)C", "Nucleic Acid", -0.09),
    ("CN(C)CCNC(=O)c1ccc2c(N)c3ccccc3nc2c1", "Nucleic Acid", 0.48),
    ("CN(C)CCN(C)C(=O)c1cccc2c(N)c3ccccc3nc12", "Nucleic Acid", 0),
    ("CN(C)CCCNC(=O)c1cccc2c(N)c3ccccc3nc12", "Nucleic Acid", 0.09),
    ("COc1cccc2c(N)c3cccc(C(=O)NCCN(C)C)c3nc12", "Nucleic Acid", 0.21),
    ("CN(C)CCCCNC(=O)c1cccc2c(N)c3ccccc3nc12", "Nucleic Acid", -0.06),
    ("CCN(CC)CCNC(=O)c1cccc2c(N)c3ccccc3nc12", "Nucleic Acid", 0.33),
    ("CN(C)CCCCCNC(=O)c1cccc2c(N)c3ccccc3nc12", "Nucleic Acid", 0),
]

###

Parameter Time constant T2: see the listing below.
- Test system: Calf thymus DNA
- Protocol Text: DNA dissociation constant was determined from calf thymus
- Assay type: functional
- Condition Parameters: Bos taurus

# Compound, Target System, Time constant T2 [ms]
records = [
    ("COc1ccc2c(N)c3ccccc3nc2c1C(=O)NCCN(C)C", "Calf thymus DNA", 20),
    ("CN(C)CCCCCCNC(=O)c1cccc2c(N)c3ccccc3nc12", "Calf thymus DNA", 19),
    ("CN(C)CCN(C)C(=O)c1cccc2c(N)c3ccccc3nc12", "Calf thymus DNA", 11),
    ("Nc1c2ccccc2nc2c(C(=O)NCCNCCO)cccc12", "Calf thymus DNA", 17),
    ("CN(C)CCNC(=O)c1ccc2c(N)c3ccccc3nc2c1", "Calf thymus DNA", 27),
    ("CN(C)CCCCCNC(=O)c1cccc2c(N)c3ccccc3nc12", "Calf thymus DNA", 16),
    ("CCN(CC)CCNC(=O)c1cccc2c(N)c3ccccc3nc12", "Calf thymus DNA", 13),
    ("CN(C)CCCNC(=O)c1cccc2c(N)c3ccccc3nc12", "Calf thymus DNA", 15),
    ("Nc1c2ccccc2nc2ccccc12 [AMINACRINE]", "Calf thymus DNA", 15),
    ("COc1cccc2nc3c(C(=O)NCCN(C)C)cccc3c(N)c12", "Calf thymus DNA", 30),
    ("CN(C)CCNC(=O)c1ccc2nc3ccccc3c(N)c2c1", "Calf thymus DNA", 27),
]
